- Experimental system: OR5K1 (Homo sapiens)
- Construct: expressed in transfected cells; host or cells: HEK293
- Sequence (Q8NHB7 1-308): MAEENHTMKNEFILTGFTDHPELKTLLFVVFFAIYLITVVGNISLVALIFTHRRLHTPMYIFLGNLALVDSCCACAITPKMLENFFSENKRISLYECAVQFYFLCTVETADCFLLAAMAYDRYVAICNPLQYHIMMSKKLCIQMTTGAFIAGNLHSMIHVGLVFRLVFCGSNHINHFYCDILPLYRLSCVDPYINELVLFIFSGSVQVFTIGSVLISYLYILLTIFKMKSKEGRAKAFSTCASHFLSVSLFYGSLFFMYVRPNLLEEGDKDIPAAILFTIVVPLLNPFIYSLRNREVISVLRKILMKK
- Protocol summary: Luciferase reporter assay: suppression of the skatole response of OR5K1 expressed in HEK293 cells
- Format: cell-based
- Condition description: test substance 100 μM mixed with 300 μM skatole, HEK293 cells expressing OR5K1
Measurement kind: Inhibition rate 5K1

Study these solved cases before continuing.
>  <Molecule>
CC/C=C\CCOC(=O)c1ccccc1O [cis-3-hexynlyl salicylate, 3(Z)-Hexenyl 2-hydroxy benzoate]

>  <Experimental system>
OR5K1 (Homo sapiens)

>  <Value observed>
C (C >20%)

$$$$
>  <Molecule>
CC(C=O)Cc1ccc(C(C)(C)C)cc1 (centres unmarked) [lilial]

>  <Experimental system>
OR5K1 (Homo sapiens)

>  <Value observed>
C (C >20%)

$$$$
>  <Molecule>
C=CCOC(=O)CCC1CCCCC1 [Allyl cyclohexylpropionate]

>  <Experimental system>
OR5K1 (Homo sapiens)

>  <Value observed>
C (C >20%)

$$$$
>  <Molecule>
CCOC(=O)C1OC1(C)c1ccccc1 (centres unmarked)

>  <Experimental system>
OR5K1 (Homo sapiens)

>  <Value observed>
C (C >20%)

$$$$
>  <Molecule>
CCOC(=O)OC1CCCCC1C(C)(C)C (centres unmarked) [Flormat, Ethyl 2-tert-butyl cyclohexyl carbonate]

>  <Experimental system>
OR5K1 (Homo sapiens)

>  <Value observed>
B (B >50%)

$$$$
>  <Molecule>
CC(=O)C=CC1=C(C)CCCC1(C)C [β-ionone]

>  <Experimental system>
OR5K1 (Homo sapiens)

>  <Value observed>
B (B >50%)

$$$$
>  <Molecule>
CC(=O)OC(C)(C)Cc1ccccc1 [dimethylbenzylcarbinyl acetate, α,α-Dimethyl phenylethyl acetate]

>  <Experimental system>
OR5K1 (Homo sapiens)

>  <Value observed>
C (C >20%)

$$$$

Challenge: # return recorded Inhibition rate 5K1 for entry CC1(C)CCCC2(C)C1CCC1(C)OCCC12 (centres unmarked) [Ambroxane]
Response given: C (C >20%)

---

Exercise: state measured inhibition at 100 µM for each of the molecules provided.
- Experimental system: OR2W1 (Homo sapiens, UniProt Q9Y3N9)
- Construct: expressed in transfected cells; host or cells: HEK293
- Sequence (Q9Y3N9 whole entry): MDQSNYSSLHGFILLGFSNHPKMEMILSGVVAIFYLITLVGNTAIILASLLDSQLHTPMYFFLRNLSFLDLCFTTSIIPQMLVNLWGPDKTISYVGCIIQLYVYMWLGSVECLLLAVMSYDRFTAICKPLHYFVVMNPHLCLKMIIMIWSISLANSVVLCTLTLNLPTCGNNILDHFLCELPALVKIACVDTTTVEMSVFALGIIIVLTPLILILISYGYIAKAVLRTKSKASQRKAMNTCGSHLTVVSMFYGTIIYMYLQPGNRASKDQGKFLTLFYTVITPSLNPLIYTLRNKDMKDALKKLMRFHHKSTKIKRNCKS
- Protocol summary: Luciferase reporter assay: suppression of the skatole response of OR2W1 expressed in HEK293 cells
- Assay type: cell-based
- Condition description: 4 h; test substance 100 μM mixed with 300 μM skatole, HEK293 cells expressing OR2W1; read-out: Inhibition rate 2W1

Challenge: # return recorded inhibition at 100 µM for entry CC(C)=CCC/C(C)=C/CO [geraniol, 2-trans-3,7-Dimethyl-2,6-octadien-1-ol]
Response given: < 20%

Challenge: # return recorded inhibition at 100 µM for entry CC(C)c1cccc(C(C)CC=O)c1 (centres unmarked) [Florhydral]
Response given: 50 to 80%

Challenge: # return recorded inhibition at 100 µM for entry C=CCCC(=O)C1=CCCC(C)(C)C1
Response given: > 80%

Challenge: # return recorded inhibition at 100 µM for entry CC12CCC(C1)C(C)(C)C2O (centres unmarked)
Response given: 20 to 50%

Challenge: # return recorded inhibition at 100 µM for entry CC1C/C=C/CCCCCCCCCC(=O)C1 (centres unmarked)
Response given: 20 to 50%

Challenge: # return recorded inhibition at 100 µM for entry CC(C)(C)c1ccc(CCC=O)cc1
Response given: > 80%

Challenge: # return recorded inhibition at 100 µM for entry Cc1ccc(C(C)C)c(O)c1
Response given: 20 to 50%

Challenge: # return recorded inhibition at 100 µM for entry CC1(C)CCCC2=C1CC(C=O)CC2 (centres unmarked)
Response given: 50 to 80%

Challenge: # return recorded inhibition at 100 µM for entry CC(C)=CCCC1=CCC(C=O)CC1 (centres unmarked)
Response given: > 80%

Challenge: # return recorded inhibition at 100 µM for entry CC(CCO)CCc1ccccc1 (centres unmarked)
Response given: < 20%

Challenge: # return recorded inhibition at 100 µM for entry CC(C)(C)C1CCC(O)CC1 (centres unmarked)
Response given: < 20%

Challenge: # return recorded inhibition at 100 µM for entry CC1=CCC(C=CC(C)C(C)O)C1(C)C (centres unmarked)
Response given: 50 to 80%

Challenge: # return recorded inhibition at 100 µM for entry C=CC(C)(O)CCC=C(C)CCC=C(C)C (centres unmarked)
Response given: > 80%

Challenge: # return recorded inhibition at 100 µM for entry CC(C)CCCC(C)CCO (centres unmarked) [tetrahydrogenol, 3,7-Dimethyl-1-octanol]
Response given: 20 to 50%

---

- Experimental system: OR5P3 (Homo sapiens, UniProt Q8WZ94)
- Construct: expressed in transfected cells; host or cells: HEK293
- Sequence (Q8WZ94 1-311): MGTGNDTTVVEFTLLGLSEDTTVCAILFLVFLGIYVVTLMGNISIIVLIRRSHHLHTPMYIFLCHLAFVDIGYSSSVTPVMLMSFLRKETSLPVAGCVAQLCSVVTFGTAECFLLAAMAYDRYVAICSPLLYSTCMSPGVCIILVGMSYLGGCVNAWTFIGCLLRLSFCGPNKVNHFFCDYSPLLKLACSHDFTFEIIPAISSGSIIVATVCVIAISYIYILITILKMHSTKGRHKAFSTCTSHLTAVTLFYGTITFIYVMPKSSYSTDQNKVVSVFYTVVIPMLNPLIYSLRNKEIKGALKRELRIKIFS
- Protocol summary: Luciferase reporter assay: suppression of the skatole response of OR5P3 expressed in HEK293 cells
- Type: cell-based
- Condition description: test substance 100 μM mixed with 300 μM skatole, HEK293 cells expressing OR5P3
Measurement kind: Inhibition rate 5P3

Study these solved cases before continuing.
>  <Molecule>
CCC(O)COC1CCCCC1C(C)(C)C (stereo not drawn)

>  <Experimental system>
OR5P3 (Homo sapiens, UniProt Q8WZ94)

>  <Inhibition rate 5P3>
B (B >50%)

$$$$
>  <Molecule>
CC(CO)CC(C)c1ccccc1 (stereo not drawn)

>  <Experimental system>
OR5P3 (Homo sapiens, UniProt Q8WZ94)

>  <Inhibition rate 5P3>
A (A >80%)

$$$$
>  <Molecule>
CC/C=C\CC1=C(C)CCC1=O [cis-jasmone]

>  <Experimental system>
OR5P3 (Homo sapiens, UniProt Q8WZ94)

>  <Inhibition rate 5P3>
C (C >20%)

$$$$
>  <Molecule>
CC1(C)CCCC2(C)C1CCC1(C)OCCC12 (stereo not drawn)

>  <Experimental system>
OR5P3 (Homo sapiens, UniProt Q8WZ94)

>  <Inhibition rate 5P3>
B (B >50%)

$$$$
>  <Molecule>
CCCCCC1C(=O)CCC1CC(=O)OC (stereo not drawn) [methyl dihydrojasmonate]

>  <Experimental system>
OR5P3 (Homo sapiens, UniProt Q8WZ94)

>  <Inhibition rate 5P3>
B (B >50%)

$$$$

Challenge: Print OR5P3 (Homo sapiens, UniProt Q8WZ94) Inhibition rate 5P3 for CC(C=O)Cc1ccc(C(C)(C)C)cc1 (stereo not drawn) .
Response given: C (C >20%)

Challenge: Print OR5P3 (Homo sapiens, UniProt Q8WZ94) Inhibition rate 5P3 for CC1COCc2cc3c(cc21)C(C)(C)C(C)C3(C)C (stereo not drawn) [Galaxolide] .
Response given: C (C >20%)

Challenge: Print OR5P3 (Homo sapiens, UniProt Q8WZ94) Inhibition rate 5P3 for C=CC(C)(O)CCC=C(C)CCC=C(C)C (stereo not drawn) .
Response given: A (A >80%)

Challenge: Print OR5P3 (Homo sapiens, UniProt Q8WZ94) Inhibition rate 5P3 for CC1(C)CCCC2=C1CC(C=O)CC2 (stereo not drawn) .
Response given: C (C >20%)

Challenge: Print OR5P3 (Homo sapiens, UniProt Q8WZ94) Inhibition rate 5P3 for O=C1CCCCCCC/C=C\CCCCCCC1 [civetone, (Z)-Cycloheptadeca-9-en-1-one] .
Response given: B (B >50%)

Challenge: Print OR5P3 (Homo sapiens, UniProt Q8WZ94) Inhibition rate 5P3 for CC(C)(C)C1CCC(O)CC1 (stereo not drawn) .
Response given: A (A >80%)

---

- Experimental system: OR8H1 (Homo sapiens, UniProt Q8NGG4)
- Construct: expressed in transfected cells; host or cells: HEK293
- Sequence (Q8NGG4 whole entry): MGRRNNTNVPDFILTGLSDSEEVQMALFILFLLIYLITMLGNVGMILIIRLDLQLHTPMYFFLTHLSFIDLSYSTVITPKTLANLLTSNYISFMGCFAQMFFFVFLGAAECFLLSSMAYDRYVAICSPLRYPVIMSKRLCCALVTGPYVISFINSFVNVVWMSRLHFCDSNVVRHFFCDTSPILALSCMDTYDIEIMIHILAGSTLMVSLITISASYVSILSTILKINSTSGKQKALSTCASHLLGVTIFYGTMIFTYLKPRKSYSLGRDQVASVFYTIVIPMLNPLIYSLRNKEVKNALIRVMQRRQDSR
- Protocol summary: Luciferase reporter assay: suppression of the skatole response of OR8H1 expressed in HEK293 cells
- Type: cell-based
- Condition description: test substance 100 μM mixed with 300 μM skatole, HEK293 cells expressing OR8H1
Measurement kind: Inhibition rate 8H1

Study these solved cases before continuing.
>  <Compound>
CC1=CC(C)C(C=O)CC1 (centres unmarked) [Triplal, Dimethyl-3-cyclohexene-1-carboxaldehyde]

>  <Inhibition rate 8H1>
C (C >20%)

$$$$
>  <Compound>
C=CCOC(=O)CCC1CCCCC1 [Allyl cyclohexylpropionate]

>  <Inhibition rate 8H1>
C (C >20%)

$$$$
>  <Compound>
CCOC(=O)OC1CCCCC1C(C)(C)C (centres unmarked) [Flormat, Ethyl 2-tert-butyl cyclohexyl carbonate]

>  <Inhibition rate 8H1>
A (A >80%)

$$$$
>  <Compound>
CC(=O)OC(C)(C)Cc1ccccc1 [dimethylbenzylcarbinyl acetate, α,α-Dimethyl phenylethyl acetate]

>  <Inhibition rate 8H1>
B (B >50%)

$$$$

Challenge: # return recorded Inhibition rate 8H1 for entry CC(=O)C=CC1=C(C)CCCC1(C)C [β-ionone]
Response given: A (A >80%)

Challenge: # return recorded Inhibition rate 8H1 for entry CC1(C)CCCC2(C)C1CCC1(C)OCCC12 (centres unmarked) [Ambroxane]
Response given: A (A >80%)

Challenge: # return recorded Inhibition rate 8H1 for entry CC(C=O)Cc1ccc(C(C)(C)C)cc1 (centres unmarked) [lilial]
Response given: C (C >20%)

Challenge: # return recorded Inhibition rate 8H1 for entry CCOC(=O)C1OC1(C)c1ccccc1 (centres unmarked)
Response given: B (B >50%)
